Target: human GLP1R (hGLP1R) (Homo sapiens, UniProt P43220)
Sequence (P43220 24-463): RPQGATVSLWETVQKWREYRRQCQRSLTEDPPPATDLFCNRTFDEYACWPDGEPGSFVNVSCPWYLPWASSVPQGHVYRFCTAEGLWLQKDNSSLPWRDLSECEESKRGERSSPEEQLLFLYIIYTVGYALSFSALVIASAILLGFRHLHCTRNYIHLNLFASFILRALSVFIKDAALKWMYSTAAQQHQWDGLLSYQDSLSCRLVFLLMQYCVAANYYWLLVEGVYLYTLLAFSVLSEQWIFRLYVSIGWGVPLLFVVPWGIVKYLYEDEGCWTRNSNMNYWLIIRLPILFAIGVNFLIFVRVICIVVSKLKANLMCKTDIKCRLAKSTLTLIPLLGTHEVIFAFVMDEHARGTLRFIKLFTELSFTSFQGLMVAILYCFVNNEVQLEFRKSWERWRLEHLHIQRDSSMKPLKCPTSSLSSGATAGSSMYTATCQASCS
Experiment: Human GLP1R cAMP agonist assay (GloSensor cAMP Assay)
Type: cell-based
Settings: intracellular cAMP, HEK293-SNAP-hGLP1R-GloSensor cells, 12 min at rt
EC50 strictly less than 0.2 nM = true (1). Otherwise false (0).

Sample answers from the record:
>  <structure_smiles_string>
CCc1nc(CN2CCC(c3cccc4c3O[C@@](C)(c3ccc(Cl)cc3F)O4)CC2)n(C[C@@H]2CCO2)c1-c1nc(C(=O)O)co1

>  <class>
true (1)

$$$$
>  <structure_smiles_string>
Cc1nc(CN2CCC(c3cccc4c3O[C@@](C)(c3ccc(Cl)cc3F)O4)CC2)n(C[C@@H]2CCO2)c1-c1coc(C(=O)O)n1

>  <class>
false (0)

$$$$
>  <structure_smiles_string>
Cc1nc(CN2CCC(c3cccc4c3O[C@@](C)(c3ccc(Cl)cc3F)O4)CC2)n(C[C@@H]2CCO2)c1-c1nc(C(=O)O)c(C)o1

>  <class>
true (1)

$$$$

-- ask Input Cc1c(-c2nc(C(F)(F)F)c(C(=O)O)o2)nc(CN2CCC(c3cccc4c3O[C@@](C)(c3ccc(Cl)cc3F)O4)CC2)n1C[C@@H]1CCO1 ; condition: EC50 strictly below 0.2 nM. Does it hold?
-- reply false (0)

-- ask Input Cc1nc(CN2CCC(c3cccc4c3O[C@@](C)(c3ccc(Cl)cc3F)O4)CC2)n(C[C@@H]2CCO2)c1-c1ccc(C(=O)O)o1
-- reply false (0)

-- ask Moving on to Cc1c(-c2cnc(C(=O)O)o2)nc(CN2CCC(c3cccc4c3O[C@@](C)(c3ccc(Cl)cc3F)O4)CC2)n1C[C@@H]1CCO1
-- reply true (1)
